Catalogue of MIC readings, one per entry.
# System: Staphylococcus aureus FAD208PJC-1
EXPERIMENTAL_READOUT: MIC (µg/mL)

| COMPOUND | RECORDED_VALUE |
| --- | --- |
| CCn1cc(C(=O)O)c(=O)c2cc(F)c(N3CCNCC3)cc21 [Reference Drug, norfloxacin, reference compound] | 0.2 |
| CCn1cc(C(=O)O)c(=O)c2cc(F)c(N3CC(C)NC(C)C3)c(F)c21 (centres unmarked) [Example 20] | 0.78 |
| CCn1cc(C(=O)O)c(=O)c2cc(F)c(N3CCNC(C)C3)cc21 (centres unmarked) [Example 1] | 0.2 |
| CCn1cc(C(=O)O)c(=O)c2cc(F)c(N3CCNC(C)C3)c(F)c21 (centres unmarked) [Example 4] | 0.38 |
| CC1CN(c2c(F)cc3c(=O)c(C(=O)O)cn(CCF)c3c2F)CCN1 (centres unmarked) [Example 16] | 0.38 |
